Tested on: Plasmodium falciparum: 3D7 strain
test name: P. falciparum 3D7 asexual blood stage assay (SYBR green readout)
Assay type: cell-based
test parameters: Plasmodium falciparum, 3D7, Erythrocyte, 72 h, P. falciparum 3D7 in human erythrocytes, 72 h incubation, SYBR green fluorescence
Counter-ions that a name gives are not always drawn.

compound	measured target	IC50
C[C@H]1C[C@@H](N2C(=N)N[C@](C)(c3cccc(-c4cncc(Cl)c4)c3Cl)CC2=O)CC[C@H]1O (relative stereo) [Example 82, hydrochloride]	Plasmodium falciparum: 3D7 strain	265 nM
C[C@H]1C[C@@H](N2C(=N)N[C@](C)(c3cccc(-c4cccc(F)c4F)c3Cl)CC2=O)CCO1 [Example 50, trifluoroacetic acid salt]	Plasmodium falciparum: 3D7 strain	84 nM
C[C@@H]1C[C@H](N2C(=N)N[C@](C)(c3cccc(-c4ccc(OC(F)(F)F)nc4)c3Cl)CC2=O)CCS1(=O)=O (relative stereo) [Example 79, hydrochloride]	Plasmodium falciparum: 3D7 strain	107 nM
C[C@@]1(c2cccc(-c3ccc(C4CC4)nc3)c2Cl)CC(=O)N([C@@H]2CCC(F)(F)[C@H](O)C2)C(=N)N1 (relative stereo) [Example 98, hydrochloride]	Plasmodium falciparum: 3D7 strain	297 nM
CO[C@@H]1C[C@H](N2C(=N)N[C@](C)(c3cccc(-c4ccc(N=S(C)(C)=O)cc4F)c3Cl)CC2=O)CCC1(F)F (relative stereo) [Example 11, hydrochloride]	Plasmodium falciparum: 3D7 strain	367 nM

----------
Tested on: Plasmodium falciparum: 3D7 strain
test name: P. falciparum 3D7 asexual blood stage assay (SYBR green readout)
Assay type: cell-based
test parameters: Plasmodium falciparum, 3D7, Erythrocyte, 72 h, P. falciparum 3D7 in human erythrocytes, 72 h incubation, SYBR green fluorescence
Structures can show the parent of a compound that is named as a salt.
Response field label: string, one of True (IC50 strictly below 100 nM) or False.

molecule	class
C[C@H]1C[C@@H](N2C(=N)N[C@](C)(c3cccc(-c4ccnnc4)c3Cl)CC2=O)CCO1 [Example 33, trifluoroacetic acid salt]	False
C[C@@H]1C[C@H](N2C(=N)N[C@](C)(c3cccc(-c4cccc(Cl)c4)c3Cl)CC2=O)CCN1 (relative stereo) [Example 101, hydrochloride]	False
C[C@H]1C[C@@H](N2C(=N)N[C@](C)(c3cccc(-c4cccc5cnn(C)c45)c3Cl)CC2=O)CCO1 [Example 56, trifluoroacetic acid salt]	True
C[C@H]1C[C@H](N2C(=N)N[C@](C)(c3cccc(-c4ccc(OC(F)(F)F)nc4)c3Cl)CC2=O)CCS1(=O)=O (relative stereo) [Example 80, hydrochloride]	False
C=C(c1ccccc1)n1cc(-c2cccc([C@]3(C)CC(=O)N([C@H]4CCO[C@@H](C)C4)C(=N)N3)c2Cl)nn1 [Example 121, trifluoroacetic acid salt]	False
C[C@H]1C[C@@H](N2C(=N)N[C@](C)(c3cccc(-c4cn(CC(F)(F)F)nn4)c3Cl)CC2=O)CCO1 [Example 110, hydrochloride]	True
COc1cncc(-c2cccc([C@]3(C)CC(=O)N([C@H]4CCO[C@@H](C)C4)C(=N)N3)c2Cl)c1 [Example 58, trifluoroacetic acid salt]	False
C[C@H]1C[C@@H](N2C(=N)N[C@](C)(c3cccc(-c4ccc(F)c(F)c4)c3Cl)CC2=O)CCO1 [Example 38, trifluoroacetic acid salt]	False
C[C@H]1C[C@@H](N2C(=N)N[C@](C)(c3cccc(-c4cccc(Cl)c4)c3Cl)CC2=O)CC[C@@H]1O (relative stereo) [Example 105, hydrochloride]	False
C[C@H]1C[C@@H](N2C(=N)N[C@](C)(c3cccc(-c4ccc(OC(F)(F)F)cc4Cl)c3Cl)CC2=O)CCO1 [Example 2, hydrochloride]	True
C[C@@]1(c2cccc(-c3cc(C4CC4)no3)c2Cl)CC(=O)N([C@H]2CCC(F)(F)[C@@H](O)C2)C(=N)N1 (relative stereo) [Example 87, hydrochloride]	False
C[C@H]1C[C@@H](N2C(=N)N[C@](C)(c3cccc(-c4cccc(C(F)(F)F)c4)c3Cl)CC2=O)CCO1 [Example 48, trifluoroacetic acid salt]	True
C[C@H]1C[C@@H](N2C(=N)N[C@](C)(c3cccc(-c4cccc(-c5ccn[nH]5)c4)c3Cl)CC2=O)CCO1 [Example 53, trifluoroacetic acid salt]	True
C[C@@H]1C[C@@H](N2C(=N)N[C@](C)(c3cccc(-c4ccc(C5CC5)nc4)c3Cl)CC2=O)CCS1(=O)=O (relative stereo) [Example 68, hydrochloride]	False
C[C@@H]1C[C@H](N2C(=N)N[C@](C)(c3cccc(-c4cccc(Cl)c4)c3Cl)CC2=O)CC[C@@H]1O (relative stereo) [Example 7, hydrochloride]	False
C[C@@]1(c2cccc(-c3cn(-c4cccc(F)c4)nn3)c2Cl)CC(=O)N([C@H]2CCC(F)(F)[C@@H](O)C2)C(=N)N1 (relative stereo) [Example 108, hydrochloride]	False
C[C@H](c1cccnc1)n1cc(-c2cccc([C@]3(C)CC(=O)N([C@H]4CCO[C@@H](C)C4)C(=N)N3)c2Cl)nn1 [Example 128, trifluoroacetic acid salt]	False
C[C@H]1C[C@@H](N2C(=N)N[C@](C)(c3cccc(-c4ccn[nH]4)c3Cl)CC2=O)CCO1 [Example 45, trifluoroacetic acid salt]	True
C[C@H]1C[C@H](N2C(=N)N[C@](C)(c3cccc(-c4ccc(F)cc4F)c3Cl)CC2=O)CCS1(=O)=O (relative stereo) [Example 65, hydrochloride]	False
COc1cc(-c2cccc([C@]3(C)CC(=O)N([C@H]4CCO[C@@H](C)C4)C(=N)N3)c2Cl)ccn1 [Example 59, trifluoroacetic acid salt]	True

----------
Listed here are compounds together with their documented IC50.
System: Plasmodium falciparum: 3D7 strain
test name: P. falciparum 3D7 asexual blood stage assay (SYBR green readout)
Assay type: cell-based
test parameters: Plasmodium falciparum, 3D7, Erythrocyte, 72 h, P. falciparum 3D7 in human erythrocytes, 72 h incubation, SYBR green fluorescence
Procedure: The compounds of the present invention are potent inhibitors of the growth and propagation of the Plasmodium falciparum parasite in human blood. The assay used to measure the effect of test compounds on a bloodstream stage of Plasmodium falciparum: 3D7 strain employs SYBR green as the readout. […] On day 5, fluorescent signal was measured using a BioTek plate reader (excitation 485 nm, emission 528 nm). […]
Where a name gives a salt, the structure may show the parent alone.

compound	measured target	IC50, nM
C[C@H]1C[C@@H](N2C(=N)N[C@](C)(c3cccc(-c4ccc(C5CC5)nc4)c3Cl)CC2=O)CCS1(=O)=O (relative stereo) [Example 67, hydrochloride]	Plasmodium falciparum: 3D7 strain	88
CO[C@H]1C[C@@H](N2C(=N)N[C@](C)(c3cccc(-c4ccc(N=S(C)(C)=O)cc4F)c3Cl)CC2=O)CCC1(F)F (relative stereo) [Example 12, hydrochloride]	Plasmodium falciparum: 3D7 strain	359
C[C@H]1C[C@@H](N2C(=N)N[C@](C)(c3cccc(-c4cn(C5CCCNCC5)nn4)c3Cl)CC2=O)CCO1 (stereo partly shown) [Example 129, trifluoroacetic acid salt]	Plasmodium falciparum: 3D7 strain	11900
C[C@@]1(c2cccc(-c3cc(C4CC4)no3)c2Cl)CC(=O)N([C@@H]2CCC(F)(F)[C@H](O)C2)C(=N)N1 (relative stereo) [Example 86, hydrochloride]	Plasmodium falciparum: 3D7 strain	286

----------
Below, each entry is listed alongside its reported log10(IC50).
System: Plasmodium falciparum: 3D7 strain
test name: P. falciparum 3D7 asexual blood stage assay (SYBR green readout)
Format: cell-based
test parameters: Plasmodium falciparum, 3D7, Erythrocyte, 72 h, P. falciparum 3D7 in human erythrocytes, 72 h incubation, SYBR green fluorescence
Where a name gives a salt, the structure may show the parent alone.
experimental endpoint: log10(IC50) (log10 of the value in µM)

compound	experimental endpoint	assay value
C[C@@H]1C[C@H](N2C(=N)N[C@](C)(c3cccc(-c4cccc(Cl)c4)c3Cl)CC2=O)CC[C@H]1O (relative stereo) [Example 104, hydrochloride]	log10(IC50)	0.69
C[C@H]1C[C@@H](N2C(=N)N[C@](C)(c3cccc(-c4ccc(P(C)(C)=O)cc4F)c3Cl)CC2=O)CCC1(F)F [Example 19, hydrochloride]	log10(IC50)	-0.41
CO[C@@H]1C[C@H](N2C(=N)N[C@](C)(c3cccc(-c4ccc(S(C)(=O)=O)cc4F)c3Cl)CC2=O)CCC1(F)F (relative stereo) [Example 9, hydrochloride]	log10(IC50)	-1.08
C[C@H]1C[C@@H](N2C(=N)N[C@](C)(c3cccc(-c4cn(-c5cc(F)c(F)cc5F)nn4)c3Cl)CC2=O)CC[C@H]1O (relative stereo) [Example 112, hydrochloride]	log10(IC50)	-0.88
C[C@H]1C[C@@H](N2C(=N)N[C@](C)(c3cccc(-c4ccccc4Cl)c3Cl)CC2=O)CCO1 [Example 46, trifluoroacetic acid salt]	log10(IC50)	-0.98
C[C@H]1C[C@@H](N2C(=N)N[C@](C)(c3cccc(-c4ccn(C)c(=O)c4)c3Cl)CC2=O)CCO1 [Example 34, trifluoroacetic acid salt]	log10(IC50)	-0.54
C[C@@H]1C[C@@H](N2C(=N)N[C@](C)(c3cccc(-c4ccc(F)cc4F)c3Cl)CC2=O)CCS1(=O)=O (relative stereo) [Example 66, hydrochloride]	log10(IC50)	-0.57
C[C@@H]1C[C@H](N2C(=N)N[C@](C)(c3cccc(-c4ccc(F)cc4F)c3Cl)CC2=O)CCN1 (relative stereo) [Example 103, hydrochloride]	log10(IC50)	-0.13
C[C@H]1C[C@@H](N2C(=N)N[C@](C)(c3cccc(-c4ccc(OC(F)(F)F)nc4)c3Cl)CC2=O)CCS1(=O)=O (relative stereo) [Example 78, hydrochloride]	log10(IC50)	-0.44
C[C@H]1C[C@@H](N2C(=N)N[C@](C)(c3cccc(-c4cccc(Cl)c4)c3Cl)CC2=O)CCN1 (relative stereo) [Example 100, hydrochloride]	log10(IC50)	-0.43
C[C@H]1C[C@@H](N2C(=N)N[C@](C)(c3cccc(-c4ccc(C5CC5)nc4)c3Cl)CC2=O)CCO1 [Example 31, trifluoroacetic acid salt]	log10(IC50)	-0.74

Values from patent US20250134890A1
